- Tested on: sugar beet (Beta vulgaris)
- assay name: Test B pre-/postemergence
- Assay type: in vivo
- condition: Rate 125 g/ha, Postemergence
measured metric: Sugarbeets plant response rating
Please respond with just the number, no unit label.

Below: 6 molecules and their reported Sugarbeets plant response rating.
{"molecule": "Cc1cnc(-c2cccc(C(F)(F)F)c2)nc1Cc1cccc(C#N)c1 [Compound 39]", "Sugarbeets plant response rating": 9}
{"molecule": "N#Cc1ccc(-c2nccc(C(=O)c3cccc(C(F)(F)F)c3)n2)cc1 [Compound 78]", "Sugarbeets plant response rating": 0}
{"molecule": "Cc1cnc(-c2ccc(Cl)cc2)nc1Cc1cccc(C#N)c1 [Compound 33]", "Sugarbeets plant response rating": 10}
{"molecule": "Cc1cnc(-n2ccc(C(F)(F)F)n2)nc1C(=O)c1cccc(C(F)(F)F)c1 [Compound 59]", "Sugarbeets plant response rating": 9}
{"molecule": "Cc1cnc(-n2cnc(C(F)(F)F)c2)nc1Cc1cccc(C(F)(F)F)c1 [Compound 44]", "Sugarbeets plant response rating": 10}
{"molecule": "Cc1cnc(-c2ccc(C(F)(F)F)cc2)nc1C(=O)c1cccc(C(F)(F)F)c1 [Compound 73]", "Sugarbeets plant response rating": 10}

Prompt: Could you tell me which Sugarbeets plant response rating is on file for Cc1cnc(-c2ccccc2F)nc1Cc1cccc(C#N)c1 [Compound 37] ?
Completion: 5

Prompt: Please do the same for O=C(c1cccc(C(F)(F)F)c1)c1ccnc(-c2ccc(F)cc2F)n1 [Compound 76] as well.
Completion: 2

Prompt: Please do the same for CCc1cnc(-n2cnc(C(F)(F)F)c2)nc1Cc1cccc(OC(F)(F)F)c1 [Compound 49] as well.
Completion: 9

Prompt: Please do the same for Cc1cnc(-c2ccc(F)cc2F)nc1Cc1cccc(C(F)(F)F)c1 [Compound 31] as well.
Completion: 10

Prompt: Please do the same for Cc1cnc(-n2ccc(C(F)(F)C(F)(F)F)n2)nc1C(=O)c1cccc(C(F)(F)F)c1 [Compound 68] as well.
Completion: 10

Prompt: Please do the same for CCc1cnc(-n2ccc(C(F)(F)F)n2)nc1C(=O)c1cccc(C(F)(F)F)c1 [Compound 69] as well.
Completion: 10

Prompt: Please do the same for Cc1cnc(-c2ccc(F)cc2F)nc1Cc1cccc(C#N)c1 [Compound 34] as well.
Completion: 8

====

- Test system: velvetleaf (Abutilon theophrasti)
- assay name: Test B pre-/postemergence
- Assay type: in vivo
- condition: Rate 62 g/ha, Postemergence
The following compounds are listed with their measured Velvetleaf plant response rating values.
Please respond with just the number, no unit label.

Below: 5 compounds and their reported Velvetleaf plant response rating.
{"compound string": "O=C(c1cccc(C(F)(F)F)c1)c1ccnc(-c2ccc(C(F)(F)F)cc2)n1", "Velvetleaf plant response rating": 1}
{"compound string": "CCc1cnc(-n2cnc(C(F)(F)F)c2)nc1C(=O)c1cccc(OC(F)(F)F)c1", "Velvetleaf plant response rating": 3}
{"compound string": "Cc1cnc(-n2ccc(C(F)(F)F)n2)nc1C(=O)c1ccc(C(F)(F)F)cc1", "Velvetleaf plant response rating": 1}
{"compound string": "CCc1cnc(-n2ccc(C(F)(F)F)n2)nc1C(=O)c1cccc(C(F)(F)F)c1", "Velvetleaf plant response rating": 8}
{"compound string": "N#Cc1ccc(-c2nccc(C(=O)c3cccc(C(F)(F)F)c3)n2)cc1", "Velvetleaf plant response rating": 0}

Below: the item to evaluate.
Prompt: Could you tell me which Velvetleaf plant response rating is on file for Cc1cnc(-n2ccc(C(F)(F)F)n2)nc1C(=O)c1cccc(OC(F)(F)F)c1 ?
Completion: 4

====

The following compounds are listed with their measured Plant response rating, Morningglory values.
- Tested on: momingglory (Ipomoea hederacea)
- assay name: Test B pre-/postemergence
- Format: in vivo
- condition: Rate 125 g/ha, Postemergence

Below: 5 compounds and their reported Plant response rating, Morningglory.
{"compound": "COc1cnc(-c2ccc(C(F)(F)F)cc2)nc1Cc1cccc(C(F)(F)F)c1", "Plant response rating, Morningglory": 9}
{"compound": "Cc1cnc(-c2ccc(F)c(Cl)c2)nc1Cc1cccc(C(F)(F)F)c1", "Plant response rating, Morningglory": 10}
{"compound": "Cc1cnc(-c2ccc(C(F)(F)F)cc2)nc1Cn1nc(C(F)(F)F)cc1C", "Plant response rating, Morningglory": 7}
{"compound": "Cc1cnc(-c2ccc(C(F)(F)F)cc2)nc1Cn1cnc(C(F)(F)F)c1", "Plant response rating, Morningglory": 7}
{"compound": "Cc1cnc(-c2ccc(C(F)(F)F)cc2)nc1C(C#N)c1cccc(C(F)(F)F)c1 (racemic)", "Plant response rating, Morningglory": 8}

Prompt: Could you tell me which Plant response rating, Morningglory is on file for Cc1cnc(-c2ccc(C(F)(F)F)cc2)nc1Cc1cccc(OC(F)(F)F)c1 ?
Completion: 8

Prompt: Please do the same for Cc1cnc(-n2ccc(C(F)(F)F)n2)nc1Cc1cccc(C(F)(F)F)c1 as well.
Completion: 9

Prompt: Please do the same for Cc1cnc(-c2ccc(C(F)(F)F)cc2)nc1C(C)c1cccc(C(F)(F)F)c1 (racemic) as well.
Completion: 3

Prompt: Please do the same for Cc1cnc(-c2ccc(C(F)(F)F)cc2)nc1Cn1ccc(C(F)(F)F)n1 as well.
Completion: 10

====

- System: soybean (Glycine max)
- assay name: Test B pre-/postemergence
- Format: in vivo
- Design: key: 0 is no effect; 10 is complete control
- condition: Rate 125 g/ha, Preemergence
The following compounds are listed with their measured Soybean plant response rating values.
Please respond with just the number, no unit label.

Below: 9 compounds and their reported Soybean plant response rating.
{"compound": "Cc1cnc(-c2ccc(C(F)(F)F)cc2)nc1C(Cl)c1cccc(C(F)(F)F)c1 (racemic)", "quantitative readout": 0}
{"compound": "Cc1cnc(-c2ccc(F)c(Cl)c2)nc1Cc1cccc(C(F)(F)F)c1", "quantitative readout": 0}
{"compound": "Cc1cnc(-c2ccc(C(F)(F)F)cc2)nc1C(C)c1cccc(C(F)(F)F)c1 (racemic)", "quantitative readout": 0}
{"compound": "Cc1cnc(-c2ccc(C(F)(F)F)cc2)nc1Cn1ccc(C(F)(F)C(F)(F)F)n1", "quantitative readout": 0}
{"compound": "Cc1cnc(-c2ccc(C(F)(F)F)cc2)nc1Cn1cc(I)cn1", "quantitative readout": 2}
{"compound": "CCc1cnc(-c2ccc(C(F)(F)F)cc2)nc1Cc1cccc(C(F)(F)F)c1", "quantitative readout": 1}
{"compound": "Cc1cnc(-c2ccc(OC(F)(F)F)cc2)nc1Cc1cccc(C(F)(F)F)c1", "quantitative readout": 0}
{"compound": "Cc1cnc(-c2ccc(C(F)(F)F)cc2)nc1Cc1cccc(OC(F)(F)F)c1", "quantitative readout": 1}
{"compound": "Cc1cnc(-c2ccc(C(F)(F)F)cc2)nc1Cn1nc(C(F)(F)F)cc1C", "quantitative readout": 1}

Below: the item to evaluate.
Prompt: Could you tell me which Soybean plant response rating is on file for Cc1cnc(-c2ccccc2)nc1Cn1ccc(C(F)(F)F)n1 ?
Completion: 0

====

- Test system: cocklebur (Xanthium strumarium)
- assay name: Test B pre-/postemergence
- Assay type: in vivo
- condition: Rate 62 g/ha, Postemergence
Criterion: Cocklebur plant response rating strictly under 3. Met: satisfied. Not met: not satisfied.

{"compound string": "Cc1cnc(-c2ccc(C(F)(F)F)cc2)nc1C(=O)c1cccc(C(F)(F)F)c1", "target": "cocklebur (Xanthium strumarium)", "category": "not satisfied"}

Now look at this entry.
Prompt: Find out if reported Cocklebur plant response rating for Cc1cnc(-n2cnc(C(F)(F)F)n2)nc1C(=O)c1cccc(C(F)(F)F)c1 is less than 3
Completion: not satisfied

====

- Tested on: momingglory (Ipomoea hederacea)
- assay name: Test B pre-/postemergence
- Assay type: in vivo
- condition: Rate 125 g/ha, Preemergence
- Description: […] At the same time, these crop and weed species were also treated with postemergence applications of test chemicals formulated in the same manner. […] Treated plants and controls were maintained in a greenhouse for twelve to sixteen days, after which all species were compared to controls and visually evaluated. […]
The following compounds are listed with their measured Morningglory plant response rating values.
Please respond with just the number, no unit label.

Below: 2 compounds and their reported Morningglory plant response rating.
{"compound": "COC(=O)C(c1cccc(C(F)(F)F)c1)c1nc(-c2ccc(C(F)(F)F)cc2)ncc1C (racemic)", "target": "momingglory (Ipomoea hederacea)", "quantitative readout": 4}
{"compound": "Cc1cnc(-n2ccc(C(F)(F)F)n2)nc1Cc1cccc(OC(F)(F)F)c1", "target": "momingglory (Ipomoea hederacea)", "quantitative readout": 10}

Prompt: Could you tell me which Morningglory plant response rating is on file for Cc1cnc(-c2ccc(C#N)cc2)nc1Cc1cccc(C#N)c1 ?
Completion: 0

====

- System: cocklebur (Xanthium strumarium)
- assay name: Test B pre-/postemergence
- Assay type: in vivo
- condition: Rate 62 g/ha, Postemergence
measured metric: Plant response rating, Cocklebur
Please respond with just the number, no unit label.

Below: 6 compounds and their reported Plant response rating, Cocklebur.
{"compound": "Cc1cnc(-c2ccc(C(F)(F)F)cc2)nc1Cn1ccc(C(F)(F)C(F)(F)F)n1", "target": "cocklebur (Xanthium strumarium)", "quantitative readout": 4}
{"compound": "Cc1cnc(-c2ccc(F)c(Cl)c2)nc1Cc1cccc(C#N)c1", "target": "cocklebur (Xanthium strumarium)", "quantitative readout": 5}
{"compound": "Cc1cnc(-c2cccc(C(F)(F)F)c2)nc1Cc1cccc(C(F)(F)F)c1", "target": "cocklebur (Xanthium strumarium)", "quantitative readout": 9}
{"compound": "Cc1cnc(-c2ccc(F)c(Cl)c2)nc1Cc1cccc(C(F)(F)F)c1", "target": "cocklebur (Xanthium strumarium)", "quantitative readout": 9}
{"compound": "Cc1cnc(-c2cccc(C(F)(F)F)c2)nc1Cc1cccc(C#N)c1", "target": "cocklebur (Xanthium strumarium)", "quantitative readout": 2}
{"compound": "Cc1cnc(-n2ccc(C(F)(F)F)n2)nc1Cc1cccc(C(F)(F)F)c1", "target": "cocklebur (Xanthium strumarium)", "quantitative readout": 8}

Prompt: For the record COc1cnc(-c2ccc(C(F)(F)F)cc2)nc1Cc1cccc(C(F)(F)F)c1 , what value of Plant response rating, Cocklebur is listed for cocklebur (Xanthium strumarium)?
Completion: 9

Prompt: Please do the same for COC(=O)C(c1cccc(C(F)(F)F)c1)c1nc(-c2ccc(C(F)(F)F)cc2)ncc1C (racemic) as well.
Completion: 6

Prompt: Please do the same for Cc1cnc(-c2ccc(C(F)(F)F)cc2)nc1Cn1cnc(C(F)(F)F)n1 as well.
Completion: 7
